# target entity: UniProt P56817
# assay overview: TR-FRET assay
# Format: biochemical
# assay context: sBACE-Fc, substrate (Europium)CEVNLDAEFK(Qsy7) 100 nM, pH4.5, 15 minutes at r.t.
pIC50: −log10 of the molar value.

{"compound": "CC1=NC2(CC(C3CCCOC3)Oc3ccc(Br)cc32)N=C1N (single isomer, unassigned) [Example 47 Isomer 4]", "pIC50": 4.19}
{"compound": "CC1=NC2(N=C1N)c1cc(C#CC(C)(C)C)ccc1CC21CCC1 (stereo not shown) [Example 59]", "pIC50": 5.58}
{"compound": "CC1=NC2(CC(C3CCOC(C)(C)C3)Oc3ccc(-c4cccc(Cl)c4)cc32)N=C1N (racemic) [Example 50 Isomeric mixture 1]", "pIC50": 7.00}
{"compound": "CC#Cc1cncc(-c2ccc3c(c2)C2(N=C(C)C(N)=N2)[C@]2(CC[C@](C)(OC)CC2)C3)c1 (stereo partly shown) [Example 111]", "pIC50": 7.29}
{"compound": "CC1=NC2(N=C1N)c1cc(Br)ccc1CC21CCC1 (stereo not shown) [Example 54]", "pIC50": 5.18}
{"compound": "CCC1=NC2(N=C1N)c1cc(Br)ccc1C[C@]21CC[C@@H](OC)CC1 (stereo partly shown) [Example 64]", "pIC50": 6.40}
{"compound": "CC1=NC2(CCOc3ccc(NC(=O)c4ccc(C)s4)cc32)N=C1N (stereo not shown) [Example 13f]", "pIC50": 5.19}
{"compound": "CC1=NC2(N=C1N)c1cc(NC(=O)c3ccc(Cl)cn3)ccc1CC21CCC(F)(F)CC1 (stereo not shown) [Example 28d]", "pIC50": 6.39}
{"compound": "CC1=NC2(CCOc3ccc(-c4cc(Cl)cc(Cl)c4)cc32)N=C1N (stereo not shown) [Example 1]", "pIC50": 6.80}
{"compound": "CC1=N[C@]2(N=C1N)c1cc(-c3cc(F)cc(C#N)c3)ccc1C[C@]21CC[C@@H](OC(F)F)CC1 (racemic) [Example 105]", "pIC50": 7.66}
{"compound": "CC1=NC2(N=C1N)c1cc(-c3cccc(Cl)c3)ccc1CC21CCOCC1 (stereo not shown) [Example 26a]", "pIC50": 7.00}
{"compound": "COCc1cc(F)cc(-c2ccc3c(c2)C2(N=C(C)C(N)=N2)[C@]2(CC[C@H](OC)CC2)C3)c1 (stereo partly shown) [Example 81]", "pIC50": 7.64}
{"compound": "CC1=NC2(N=C1N)c1cc(Br)ccc1CC21CCC(C(F)F)CC1 (stereo not shown) [Example 128]", "pIC50": 5.58}
{"compound": "CCO[C@H]1CC[C@]2(CC1)Cc1ccc(-c3cncc(Cl)c3)cc1C21N=C(C)C(N)=N1 (stereo partly shown) [Example 133]", "pIC50": 7.60}
{"compound": "CC#CCOc1ccc(C(=O)Nc2ccc3c(c2)C2(CCO3)N=C(C)C(N)=N2)nc1 (stereo not shown) [Example 13d]", "pIC50": 6.95}
{"compound": "CC1=NC2(CC(C3CCCOC3)Oc3ccc(Br)cc32)N=C1N (single isomer, unassigned) [Example 47 Isomer 6]", "pIC50": 5.86}

###

# target entity: UniProtKB P56817
# assay overview: Diluted TR-FRET assay
# Type: biochemical
# assay context: values marked ^a; 50 times less enzyme, 6.5 h reaction time at r.t. in the dark; read-out: IC50 in TR-FRET assay (IC50 from the diluted FRET assay)

{"compound": "CCC1=NC2(N=C1N)c1cc(-c3cncc(C#N)c3)ccc1C[C@]21CC[C@@H](OC)CC1 (stereo partly drawn) [Example 69]", "IC50, nM": 21}
{"compound": "CO[C@H]1CC[C@]2(CC1)Cc1ccc(-c3cc(Cl)cnc3C)cc1C21N=C(C)C(N)=N1 (stereo partly drawn) [Example 62]", "IC50, nM": 19}
{"compound": "CO[C@H]1CC[C@]2(CC1)Cc1ccc(-c3cc(C#N)cc(C(F)F)c3)cc1[C@@]21N=C(C)C(N)=N1 [Example 86]", "IC50, nM": 1.5}
{"compound": "CO[C@H]1CC[C@]2(CC1)Cc1ccc(-c3cc(C)cc(C#N)c3)cc1C21N=C(C)C(N)=N1 (stereo partly drawn) [Example 74]", "IC50, nM": 2.6}
{"compound": "CC#Cc1ccnc(-c2ccc3c(c2)C2(N=C(C)C(N)=N2)[C@]2(CC[C@H](OC)CC2)C3)c1 (stereo partly drawn) [Example 20b]", "IC50, nM": 2.3}
{"compound": "CC1=NC2(N=C1N)c1cc(-c3cc(Cl)cc(C#N)c3)ccc1C[C@]21CC[C@@H](OC(F)F)CC1 (stereo partly drawn) [Example 108]", "IC50, nM": 1.3}
{"compound": "COc1ccc(F)c(-c2ccc3c(c2)[C@@]2(N=C(C)C(N)=N2)[C@]2(CC[C@H](OC)CC2)C3)c1 [Example 98]", "IC50, nM": 1.5}
{"compound": "CO[C@H]1CC[C@]2(CC1)Cc1ccc(-c3cc(F)ccc3F)cc1[C@@]21N=C(C)C(N)=N1 [Example 99]", "IC50, nM": 3.9}
{"compound": "CCc1cc(C#N)cc(-c2ccc3c(c2)C2(N=C(C)C(N)=N2)[C@]2(CC[C@H](OC)CC2)C3)c1 (stereo partly drawn) [Example 95]", "IC50, nM": 5.3}

###

# target entity: human β-Secretase (Homo sapiens (Human), UniProt P56817)
# Sequence (P56817 22-460): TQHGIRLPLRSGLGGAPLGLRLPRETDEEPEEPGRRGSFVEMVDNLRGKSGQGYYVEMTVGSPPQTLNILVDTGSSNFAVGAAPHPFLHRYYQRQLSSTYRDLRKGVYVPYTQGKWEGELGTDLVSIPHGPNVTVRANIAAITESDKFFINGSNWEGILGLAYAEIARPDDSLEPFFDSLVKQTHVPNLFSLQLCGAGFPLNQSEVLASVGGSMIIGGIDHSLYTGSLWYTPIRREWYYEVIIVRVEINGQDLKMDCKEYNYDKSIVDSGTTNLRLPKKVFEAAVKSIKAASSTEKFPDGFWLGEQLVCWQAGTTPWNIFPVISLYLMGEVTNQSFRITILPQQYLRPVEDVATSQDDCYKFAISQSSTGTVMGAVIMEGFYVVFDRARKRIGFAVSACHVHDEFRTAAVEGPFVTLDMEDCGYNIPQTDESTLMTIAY
# assay overview: TR-FRET assay
# Assay type: biochemical
# assay context: sBACE-Fc, substrate (Europium)CEVNLDAEFK(Qsy7) 100 nM, pH4.5, 15 minutes at r.t.

{"compound": "CC1=NC2(CC(C3CCCOC3)Oc3ccc(Br)cc32)N=C1N (single isomer, unassigned) [Example 47 Isomer 3]", "IC50 in TR-FRET assay": "inactive"}
{"compound": "CC1=NC2(CC(C3CCCOC3)Oc3ccc(Br)cc32)N=C1N (single isomer, unassigned) [Example 47 Isomer 7]", "IC50 in TR-FRET assay": "inactive"}
{"compound": "CC1=NC2(CC(C3CCCOC3)Oc3ccc(Br)cc32)N=C1N (single isomer, unassigned) [Example 47 Isomer 1]", "IC50 in TR-FRET assay": "inactive"}
{"compound": "CC1=NC2(CC(C3CCOC(C)(C)C3)Oc3ccc(Br)cc32)N=C1N (mixture of isomers) [Example 49 Isomeric mixture 2]", "IC50 in TR-FRET assay": "inactive"}

###

# target entity: human β-Secretase (Homo sapiens (Human), UniProt P56817)
# assay overview: TR-FRET assay
# Type: biochemical
# assay context: sBACE-Fc, substrate (Europium)CEVNLDAEFK(Qsy7) 100 nM, pH4.5, 15 minutes at r.t.
pIC50: −log10 of the molar value.
We use 7 as the dividing line for pIC50: on or above the line is Fulfilled, below is Not fulfilled.

{"molecule": "CC1=NC2(CCOc3ccc(NC(=O)c4ncc(Cl)cc4Cl)cc32)N=C1N (stereo not shown) [Example 13i]", "group": "Not fulfilled"}
{"molecule": "CC#Cc1cncc(-c2ccc3c(c2)C2(N=C(C)C(N)=N2)[C@]2(CC[C@H](OCC)CC2)C3)c1 (stereo partly shown)", "group": "Fulfilled"}
{"molecule": "CO[C@H]1CC[C@]2(CC1)Cc1ccc(-c3cccc(F)c3F)cc1[C@@]21N=C(C)C(N)=N1", "group": "Fulfilled"}
{"molecule": "CCO[C@H]1CC[C@]2(CC1)Cc1ccc(-c3cc(C#N)cc(C(F)F)c3)cc1C21N=C(C)C(N)=N1 (stereo partly shown)", "group": "Fulfilled"}
{"molecule": "CC1=NC2(CCOc3ccc(-c4cc(C)ccc4F)cc32)N=C1N (stereo not shown)", "group": "Not fulfilled"}
{"molecule": "CC1=NC2(N=C1N)c1cc(-c3cc(F)cc(F)c3)ccc1C[C@]21CC[C@@H](OC(F)F)CC1 (stereo partly shown)", "group": "Fulfilled"}
{"molecule": "CC1=NC2(CC(C3CCCOC3)Oc3ccc(Br)cc32)N=C1N (single isomer, unassigned) [Example 47 Isomer 2]", "group": "Not fulfilled"}
{"molecule": "CC1=NC2(N=C1N)c1cc(-c3cc(F)cc(C#N)c3)ccc1CC21CCC(=O)CC1 (stereo not shown)", "group": "Not fulfilled"}
{"molecule": "COc1ccc(C)cc1-c1ccc2c(c1)C1(CCO2)N=C(C)C(N)=N1 (stereo not shown)", "group": "Not fulfilled"}
{"molecule": "CC1=NC2(CC(C3CCCOC3)Oc3ccc(Br)cc32)N=C1N (single isomer, unassigned) [Example 47 Isomer 5]", "group": "Not fulfilled"}
{"molecule": "CC1=NC2(CCOc3ccc(NC(=O)c4ccc(Cl)cn4)cc32)N=C1N (stereo not shown) [Example 13a]", "group": "Not fulfilled"}
{"molecule": "CC1=NC2(CC(C3CCOC(C)(C)C3)Oc3ccc(Br)cc32)N=C1N (mixture of isomers) [Example 49 Isomeric mixture 1]", "group": "Fulfilled"}
{"molecule": "COc1ccc(OC)c(-c2ccc3c(c2)C2(CCO3)N=C(C)C(N)=N2)c1 (stereo not shown)", "group": "Not fulfilled"}
{"molecule": "CC1=NC2(CC(C3CCCOC3)Oc3ccc(Br)cc32)N=C1N (single isomer, unassigned) [Example 47 Isomer 8]", "group": "Not fulfilled"}
